Test system: 282377-053-R-J1-PDC complex spheroid viability
ASSAY_OVERVIEW: Anticancer human tumor 282377-053-R-J1-PDC patient-derived colon adenocarcinoma cell line growth inhibition [RAS]
CONDITION_INFO: second compound 0.316 µM; first compound 0.1 µM; stronger effect = lower value
VALUE_TYPE: viability, T/C (%)
Answer format: numeric, % implied, no suffix.

COMPOUND: CCC(CC)c1cc(NC2CCC(N)C2)n2nccc2n1 (centres undefined) + C=CC(=O)N1CCN(c2nc(OCC3CCCN3C)nc3c(F)c(-c4nc(N)cc(C)c4C(F)(F)F)c(Cl)cc23)C(C)C1
QUANTITATIVE_READOUT: 105

COMPOUND: O=C(c1ccc(F)c(F)c1Nc1ccc(I)cc1F)N1CC(O)([C@@H]2CCCCN2)C1 + C=CC(=O)N1CCN(c2nc(OCC3CCCN3C)nc3c(F)c(-c4nc(N)cc(C)c4C(F)(F)F)c(Cl)cc23)C(C)C1
QUANTITATIVE_READOUT: 57.8

COMPOUND: Cc1nc(N2CCC3(CC2)COC(C)C3N)c(CO)nc1Sc1ccnc(N)c1Cl (centres undefined) + C#Cc1c(F)ccc2cc(O)cc(-c3ncc4c(N5CC6CCC(C5)N6)nc(OCC56CCCN5CC(F)C6)nc4c3F)c12
QUANTITATIVE_READOUT: 114

The record that follows has no viability, T/C shown yet.
Report its viability, T/C with 282377-053-R-J1-PDC complex spheroid viability as the test system: Nc1ccn(C2OC(CO)C(O)C2(F)F)c(=O)n1 (centres undefined) + C#Cc1c(F)ccc2cc(O)cc(-c3ncc4c(N5CC6CCC(C5)N6)nc(OCC56CCCN5CC(F)C6)nc4c3F)c12
77

* * *

Test system: 282377-053-R-J1-PDC complex spheroid viability
ASSAY_OVERVIEW: Anticancer human tumor 282377-053-R-J1-PDC cell line growth inhibition [RAS];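 also: spheroids exposed to agents for seven days before readout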;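 as to viability, T/C: luminescence viability as percent of DMSO vehicle control wells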
CONDITION_INFO: second compound 1 µM; first compound 0.003 µM; stronger effect = lower value
Excerpt: RAS pathway inhibitors in Combinations in Complex Spheroids A high-throughput screen of multi-cell type tumor spheroids was designed to identify active combinations of RAS pathway inhibitors and targeted small molecules. Complex spheroids include a stromal component modeled by human endothelial cells (HUVEC) and fibroblasts modeled by human mesenchymal stem cells (MSCs). […] Compounds. […] If the clinical Cmax for an agent had not been determined, the highest concentration tested was 10 microM. […]
VALUE_TYPE: viability, T/C

These solved cases illustrate the format of a correct answer.
COMPOUND: CCc1c2c(nc3ccc(O)cc13)-c1cc3c(c(=O)n1C2)COC(=O)[C@]3(O)CC + C#Cc1c(F)ccc2cc(O)cc(-c3ncc4c(N5CC6CCC(C5)N6)nc(OCC56CCCN5CC(F)C6)nc4c3F)c12
viability, T/C: 104%

COMPOUND: CC1(C)CCC(Nc2ncc(C(F)(F)F)c(-c3c[nH]c4c(P(C)(C)=O)c(C#N)ccc34)n2)CN1 (centres undefined) + C#Cc1c(F)ccc2cc(O)cc(-c3ncc4c(N5CC6CCC(C5)N6)nc(OCC56CCCN5CC(F)C6)nc4c3F)c12
viability, T/C: 110%

COMPOUND: CCc1c2c(nc3ccc(O)cc13)-c1cc3c(c(=O)n1C2)COC(=O)[C@]3(O)CC + C=CC(=O)N1CCN(c2nc(OCC3CCCN3C)nc3c(F)c(-c4nc(N)cc(C)c4C(F)(F)F)c(Cl)cc23)C(C)C1
viability, T/C: 126%

Consider the additional compound presented here.
Using the record for CC1(C)CCC(Nc2ncc(C(F)(F)F)c(-c3c[nH]c4c(P(C)(C)=O)c(C#N)ccc34)n2)CN1 (centres undefined) + C=CC(=O)N1CCN(c2nc(OCC3CCCN3C)nc3c(F)c(-c4nc(N)cc(C)c4C(F)(F)F)c(Cl)cc23)C(C)C1 , state its measured viability, T/C.
112%

* * *

System: 282377-053-R-J1-PDC complex spheroid viability
ASSAY_OVERVIEW: Anticancer human tumor 282377-053-R-J1-PDC cell line growth inhibition [RAS];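 also: spheroids exposed to agents for seven days before readout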;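 as to viability, T/C: luminescence viability as percent of DMSO vehicle control wells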
CONDITION_INFO: second compound 0.0949 µM; first compound 0.003 µM; stronger effect = lower value
From the text: RAS pathway inhibitors in Combinations in Complex Spheroids A high-throughput screen of multi-cell type tumor spheroids was designed to identify active combinations of RAS pathway inhibitors and targeted small molecules. Complex spheroids include a stromal component modeled by human endothelial cells (HUVEC) and fibroblasts modeled by human mesenchymal stem cells (MSCs). […] Compounds. […] If the clinical Cmax for an agent had not been determined, the highest concentration tested was 10 microM. […]
VALUE_TYPE: viability, T/C (%)
Return type: number; implicit unit %.

Guide cases for viability, T/C, answers given:
MOLECULE: CC1(C)CCC(Nc2ncc(C(F)(F)F)c(-c3c[nH]c4c(P(C)(C)=O)c(C#N)ccc34)n2)CN1 (centres undefined) + CCn1c(-c2cccnc2C(C)OC)c2c3cc(ccc31)N1CCOC(CC(NC(=O)C(C(C)C)N(C)C(=O)C3(F)CCN(C(=O)C#CC(C)(C)N(C)C)CC3)C(=O)N3CCCC(N3)C(=O)OCC(C)(C)C2)C1
VALUE_TYPE: viability, T/C
QUANTITATIVE_READOUT: 135
//
MOLECULE: CC1(C)CCC(Nc2ncc(C(F)(F)F)c(-c3c[nH]c4c(P(C)(C)=O)c(C#N)ccc34)n2)CN1 (centres undefined) + CCn1c(-c2cc(N3CCN(C)CC3)cnc2C(C)OC)c2c3cc(ccc31)-c1csc(n1)CC(NC(=O)C1CC1C)C(=O)N1CCCC(N1)C(=O)OCC(C)(C)C2
VALUE_TYPE: viability, T/C
QUANTITATIVE_READOUT: 118

Let me know recorded viability, T/C for CCc1c2c(nc3ccc(O)cc13)-c1cc3c(c(=O)n1C2)COC(=O)[C@]3(O)CC + CCn1c(-c2cccnc2C(C)OC)c2c3cc(ccc31)N1CCOC(CC(NC(=O)C(C(C)C)N(C)C(=O)C3(F)CCN(C(=O)C#CC(C)(C)N(C)C)CC3)C(=O)N3CCCC(N3)C(=O)OCC(C)(C)C2)C1 , thanks.
143

State, in one line, measured viability, T/C of CCc1c2c(nc3ccc(O)cc13)-c1cc3c(c(=O)n1C2)COC(=O)[C@]3(O)CC + CCn1c(-c2cc(N3CCN(C)CC3)cnc2C(C)OC)c2c3cc(ccc31)-c1csc(n1)CC(NC(=O)C1CC1C)C(=O)N1CCCC(N1)C(=O)OCC(C)(C)C2
122

* * *

Test system: 282377-053-R-J1-PDC complex spheroid viability
ASSAY_OVERVIEW: Anticancer human tumor 282377-053-R-J1-PDC cell line growth inhibition [RAS];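 also: spheroids exposed to agents for seven days before readout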
CONDITION_INFO: curve of first compound; second compound 0.316 µM
Reported IC50 is given for each of the following molecules.

Here are 2 molecules together with their reported answers.
MOLECULE: CCN1CCN(Cc2ccc(Nc3ncc(F)c(-c4cc(F)c5nc(C)n(C(C)C)c5c4)n3)nc2)CC1 + C=CC(=O)N1CCN(c2nc(OCC3CCCN3C)nc3c(F)c(-c4nc(N)cc(C)c4C(F)(F)F)c(Cl)cc23)C(C)C1
VALUE_TYPE: IC50
RESULT: > 1000 nM

MOLECULE: CC(Nc1ccc2c(c1)OCCn1cc(N3C(=O)OCC3C(F)F)nc1-2)C(N)=O (stereo not given) + C#Cc1c(F)ccc2cc(O)cc(-c3ncc4c(N5CC6CCC(C5)N6)nc(OCC56CCCN5CC(F)C6)nc4c3F)c12
VALUE_TYPE: IC50
RESULT: > 10000 nM

Specify measured IC50 for C=CC(=O)Nc1cc(Nc2nccc(-c3cn(C)c4ccccc34)n2)c(OC)cc1N(C)CCN(C)C + C=CC(=O)N1CCN(c2nc(OCC3CCCN3C)nc3c(F)c(-c4nc(N)cc(C)c4C(F)(F)F)c(Cl)cc23)C(C)C1 .
> 1000 nM

Give the reported value of IC50 for this record: C[C@@H](NC(=O)c1ncnc(N)c1Cl)c1ncc(C(=O)Nc2cc(C(F)(F)F)c(Cl)cn2)s1 + C=CC(=O)N1CCN(c2nc(OCC3CCCN3C)nc3c(F)c(-c4nc(N)cc(C)c4C(F)(F)F)c(Cl)cc23)C(C)C1
> 10000 nM

Please indicate IC50 recorded for Nc1ccn(C2OC(CO)C(O)C2(F)F)c(=O)n1 (stereo not given) + C=CC(=O)N1CCN(c2nc(OCC3CCCN3C)nc3c(F)c(-c4nc(N)cc(C)c4C(F)(F)F)c(Cl)cc23)C(C)C1
243 nM

* * *

Tested on: 282377-053-R-J1-PDC complex spheroid viability
ASSAY_OVERVIEW: Anticancer human tumor 282377-053-R-J1-PDC cell line growth inhibition [RAS];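 also: spheroids exposed to agents for seven days before readout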
CONDITION_INFO: curve of first compound; second compound 0.316 µM
pIC50: −log10 of the molar value.
Measured pIC50 values are reported for all entries that follow.

As a guide, the following entries are already answered.
COMPOUND: C=CC(=O)N1CCN(c2nc(OCC3CCCN3C)nc3c(F)c(-c4nc(N)cc(C)c4C(F)(F)F)c(Cl)cc23)C(C)C1 (stereo not drawn) + C#Cc1c(F)ccc2cc(O)cc(-c3ncc4c(N5CC6CCC(C5)N6)nc(OCC56CCCN5CC(F)C6)nc4c3F)c12
RESULT: < 6.00
//
COMPOUND: CC1(C)CCC(Nc2ncc(C(F)(F)F)c(-c3c[nH]c4c(P(C)(C)=O)c(C#N)ccc34)n2)CN1 (stereo not drawn) + C#Cc1c(F)ccc2cc(O)cc(-c3ncc4c(N5CC6CCC(C5)N6)nc(OCC56CCCN5CC(F)C6)nc4c3F)c12
RESULT: < 6.52

Complete the entry with pIC50 for CCc1c2c(nc3ccc(O)cc13)-c1cc3c(c(=O)n1C2)COC(=O)[C@]3(O)CC + C#Cc1c(F)ccc2cc(O)cc(-c3ncc4c(N5CC6CCC(C5)N6)nc(OCC56CCCN5CC(F)C6)nc4c3F)c12
< 6.52

Each recorded value in this set is attributed to PubChem BioAssay AID2060905.
